System Name: Adenosine A-1 receptor (Rattus norvegicus)
Sequence (P25099 whole entry): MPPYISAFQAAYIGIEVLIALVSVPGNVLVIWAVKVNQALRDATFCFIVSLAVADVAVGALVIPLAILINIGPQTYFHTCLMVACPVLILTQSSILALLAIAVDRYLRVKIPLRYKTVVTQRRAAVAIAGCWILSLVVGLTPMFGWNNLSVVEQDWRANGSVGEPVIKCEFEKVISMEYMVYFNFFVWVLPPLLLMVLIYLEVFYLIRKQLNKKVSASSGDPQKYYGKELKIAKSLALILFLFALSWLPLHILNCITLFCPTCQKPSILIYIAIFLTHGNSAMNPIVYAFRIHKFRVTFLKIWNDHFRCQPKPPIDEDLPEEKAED
Reported Endpoint: pKi
Scale note: pKi = -log10(concentration in M).

-- ask Give the measured pKi of `CCCOC1=Nc2c(ncn2-c2ccccc2)C2=N[C@@H](Cc3ccccc3)CN12` .
-- reply 5.05

====

System Name: adenosine A-2 receptors (Rattus norvegicus, UniProt P30543)
Sequence (P30543 whole entry): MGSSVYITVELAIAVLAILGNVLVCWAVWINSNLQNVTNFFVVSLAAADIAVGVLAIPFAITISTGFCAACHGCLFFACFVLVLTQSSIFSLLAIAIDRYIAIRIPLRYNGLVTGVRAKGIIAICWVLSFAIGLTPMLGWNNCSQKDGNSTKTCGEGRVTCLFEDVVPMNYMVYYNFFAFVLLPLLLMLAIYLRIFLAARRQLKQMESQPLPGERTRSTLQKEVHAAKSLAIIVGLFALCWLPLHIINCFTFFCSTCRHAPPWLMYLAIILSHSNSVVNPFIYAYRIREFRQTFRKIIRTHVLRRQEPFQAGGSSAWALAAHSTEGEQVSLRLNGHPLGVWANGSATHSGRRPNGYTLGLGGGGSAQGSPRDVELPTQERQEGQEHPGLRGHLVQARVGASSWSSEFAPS
Protocol: Affinity for brain adenosine A-2 receptors ([3H]NECA displacement, rat brain striatum membranes)
Assay Context: [3H]NECA, rat brain striatum membranes, 25° C., 60 minutes; read-out: A-2 Receptor Ki
Reported Endpoint: Ki (nM)
Use nM as the unit, but write only the number.

-- ask Give its Ki value. Item: `CCCOC1=Nc2c(ncn2-c2ccccc2)C2=N[C@@H](Cc3ccccc3)CN12`
-- reply 1600
